Data origin: patent US20240034792A1

Assign EC50 to each entry below.
# SYSTEM NAME: T1, Cynomolgus monkey PD-1-His protein (AcroBiosystems, # PD1-05223) (cynomolgus monkey, UniProt B0LAJ3 25-170)
# T1 construct: Bought reagent, coated on the ELISA plate; also called cynomolgus monkey PD-1 protein
# T1 sequence (B0LAJ3 entry or part of it limits assumed): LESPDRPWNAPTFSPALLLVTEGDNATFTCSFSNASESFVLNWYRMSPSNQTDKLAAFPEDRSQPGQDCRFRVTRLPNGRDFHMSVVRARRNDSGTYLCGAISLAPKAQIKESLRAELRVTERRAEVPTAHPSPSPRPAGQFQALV
# MEASUREMENT DESCRIPTION: ELISA, plate-coated cynomolgus monkey PD-1-His
Answers are plain numbers, in pM.

Some binders with known EC50 results, for comparison:
- BINDER: "PR002481 (antibody, human IgG1, V domains shown, Heavy-chain-only antibody (HCAb), human IgG1 Fc; two heavy chains, no light chain; also called R4004P556D1; anti-PD1 R4004P556D1 HCAb hG1) VH: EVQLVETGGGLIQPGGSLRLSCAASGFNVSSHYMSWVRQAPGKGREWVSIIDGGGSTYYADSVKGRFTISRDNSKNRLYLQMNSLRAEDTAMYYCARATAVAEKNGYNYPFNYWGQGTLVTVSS"
  EC50, pM: 31
- BINDER: "PR002479 (antibody, human IgG1, V domains shown, Heavy-chain-only antibody (HCAb), human IgG1 Fc; two heavy chains, no light chain; also called R4004P551D6) VH: EVQLVETGGGLIQPGGSLRLSCAASGFNVSSHYMSWVRQAPGKGLEWVSIIHSGGSTYYADSVKGRFTISRDNSKNRLYLQMNSLRAEDTAVYYCARATAVAEENGYNYPFNYWGQGTLVTVSS"
  EC50, pM: 252
- BINDER: "PR002476 (antibody, human IgG1, V domains shown, Heavy-chain-only antibody (HCAb), human IgG1 Fc; two heavy chains, no light chain; also called R4004P547H11) VH: EVQLVETGGGLIQPGGSLRLSCAASGFNVSSHYMSWVRQAPGKGLEWVSIIHSGGSTYYADSVKGRFTISRDNSKNRLYLQMNSLRAEDTAVYYCARATAVAEKNGYNYPFNYWGQGTLVTVSS"
  EC50, pM: 366

I have 2 binders here; please give me EC50 for each one.
1. PR002474 (antibody, human IgG1, V domains shown, Heavy-chain-only antibody (HCAb), human IgG1 Fc; two heavy chains, no light chain; also called R4004P547D3) VH: EVQLVETGGGLIQPGGSLRLSCAASGFNVSSHYMSWVRQAPGKGLEWVSIIHSGGSTYYADSVKGRFTISRDNSKNRLYLQMNSLRADDTAVYYCARATAVAEKNGYNYPFNYWGQGTLVTVSS
2. PR000150 (pembrolizumab analog) (antibody, human IgG4 S228P, kappa, V domains shown, Anti-PD-1 positive control; also called positive control antibody pembrolizumab) VH: QVQLVQSGVEVKKPGASVKVSCKASGYTFTNYYMYWVRQAPGQGLEWMGGINPSNGGTNFNEKFKNRVTLTTDSSTTTAYMELKSLQFDDTAVYYCARRDYRFDMGFDYWGQGTTVTVSS VL: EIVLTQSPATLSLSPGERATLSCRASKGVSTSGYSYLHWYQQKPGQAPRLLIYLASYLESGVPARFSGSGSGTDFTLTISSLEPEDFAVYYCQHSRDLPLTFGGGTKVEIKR

**Result**
345
39
